system: KU-19-19 (Bladder Carcinoma); assay: Bliss excess, mean over the matrix (fraction); higher = more synergy
Recorded Bliss excess for the following compounds

Compound	Readout Label	Assay Result
Cc1cc2ncnn2cc1Nc1ncc2c(n1)n(C1CCOCC1)c(=O)n2C [AZD7648] + CN(C)CCCOc1ccc(-c2ccc3ncc4c(c3c2)n(C2CCOCC2)c(=O)n4C)cn1 [AZD0156] (first compound max 10 µM, 7x7, partner max 1 µM)	Bliss excess	0.0009
CN(CCO)CC[C@H](CSc1ccccc1)Nc1ccc(S(=O)(=O)NC(=O)c2ccc(N3CCC([C@@H](O)c4ccccc4-c4ccc(Cl)cc4)CC3)cc2)cc1S(=O)(=O)C(F)(F)F [AZD4320] + CN(C)CCCOc1ccc(-c2ccc3ncc4c(c3c2)n(C2CCOCC2)c(=O)n4C)cn1 [AZD0156] (first compound max 1 µM, 7x7, partner max 1 µM)	Bliss excess	-0.0364
Cn1cnc2c(F)c(Nc3ccc(Br)cc3Cl)c(C(=O)NOCCO)cc21 [Selumetinib] + C[C@@H]1COCCN1C2=NC(=NC(=C2)C3(CC3)[S@](=N)(=O)C)C4=C5C=CNC5=NC=C4 [AZD6738] (first compound max 10 µM, 7x7, partner max 10 µM)	Bliss excess	-0.0147
CN(C)CCCOc1ccc(-c2ccc3ncc4c(c3c2)n(C2CCOCC2)c(=O)n4C)cn1 [AZD0156] + C=CCn1c(=O)c2cnc(Nc3ccc(N4CCN(C)CC4)cc3)nc2n1-c1cccc(C(C)(C)O)n1 [AZD1775] (first compound max 1 µM, partner max 1 µM)	Bliss excess	-0.0043
C[C@@H](c1ccc2nccn2c1)n1nnc2ncc(-c3cnn(C)c3)nc21 [Savolitinib] + CC1(C)CCC(CN2CCN(c3ccc(C(=O)NS(=O)(=O)c4ccc(NCC5CCOCC5)c([N+](=O)[O-])c4)c(Oc4cnc5[nH]ccc5c4)c3)CC2)=C(c2ccc(Cl)cc2)C1 [Venetoclax] (first compound max 1 µM, 7x7, partner max 1 µM)	Bliss excess	-0.0468
Cc1cc2ncnn2cc1Nc1ncc2c(n1)n(C1CCOCC1)c(=O)n2C [AZD7648] + O=C(c1cc(Cc2n[nH]c(=O)c3ccccc23)ccc1F)N1CCN(C(=O)C2CC2)CC1 [Olaparib] (first compound max 10 µM, 7x7, partner max 10 µM)	Bliss excess	-0.0153

// moving on: another record for Bliss excess
Measured Bliss excess of Cc1nc(Nc2ncc(C(=O)Nc3c(C)cccc3Cl)s2)cc(N2CCN(CCO)CC2)n1 [Dasatinib] + CC(=O)Nc1cccc(-n2c(=O)n(C3CC3)c(=O)c3c(Nc4ccc(I)cc4F)n(C)c(=O)c(C)c32)c1 [Trametinib] (first compound max 2 µM, 7x7, partner max 1 µM) : 0.0906

* * *

tested on: VMRC-LCD (Lung Adenocarcinoma); test: combination Emax (second highest fraction inhibited in the dose matrix, 72 h); higher = more inhibition; extreme values may be limits of the assay
Readout Label: combination Emax

Molecule	combination Emax
N#Cc1cnc(Nc2cc(NC[C@H]3CNCCO3)c(C(F)(F)F)cn2)cn1 [SRA737] + CCc1c2c(nc3ccc(O)cc13)-c1cc3c(c(=O)n1C2)COC(=O)[C@]3(O)CC [SN-38] (first compound max 10 µM, 7x7, partner max 0.3 µM)	0.812
Cc1c2c(nn1C)CSCc1cc(n(C)n1)CSc1cc(c3ccccc3c1)OCCCc1c(C(=O)O)n(C)c3c-2c(Cl)ccc13 [AZD5991] + CC1(C)CCC(CN2CCN(c3ccc(C(=O)NS(=O)(=O)c4ccc(NCC5CCOCC5)c([N+](=O)[O-])c4)c(Oc4cnc5[nH]ccc5c4)c3)CC2)=C(c2ccc(Cl)cc2)C1 [Venetoclax] (first compound max 1 µM, 7x7, partner max 1 µM)	0.164

Reported combination Emax of CC(=O)c1c(C)c2cnc(Nc3ccc(N4CCNCC4)cn3)nc2n(C2CCCC2)c1=O [Palbociclib] + Cn1cnc2c(F)c(Nc3ccc(Br)cc3Cl)c(C(=O)NOCCO)cc21 [Selumetinib] (first compound max 10 µM, 7x7, partner max 10 µM) : 0.123

* * *

system: EW-13 (Ewing's Sarcoma); assay: Bliss excess, mean over the matrix (fraction); higher = more synergy
Readout Label: Bliss excess
Just the number.

Molecule	Assay Result
CCN(CCO)CCCOc1ccc2c(Nc3cc(CC(=O)Nc4cccc(F)c4)[nH]n3)ncnc2c1 [AZD2811] + O=C(c1cc(Cc2n[nH]c(=O)c3ccccc23)ccc1F)N1CCN(C(=O)C2CC2)CC1 [Olaparib] (first compound max 1 µM, 7x7, partner max 10 µM)	-0.0532
CC(=O)c1c(C)c2cnc(Nc3ccc(N4CCNCC4)cn3)nc2n(C2CCCC2)c1=O [Palbociclib] + CN(CC[C@H](CSC1=CC=CC=C1)NC2=C(C=C(C=C2)S(=O)(=O)NC(=O)C3=CC=C(C=C3)N4CCC(CC4)[C@H](C5=CC=CC=C5C6=CC=C(C=C6)Cl)O)S(=O)(=O)C(F)(F)F)CCO [AZD4320] (first compound max 10 µM, 7x7, partner max 1 µM)	-0.121
Cc1c2c(nn1C)CSCc1cc(n(C)n1)CSc1cc(c3ccccc3c1)OCCCc1c(C(=O)O)n(C)c3c-2c(Cl)ccc13 [AZD5991] + C=CCn1c(=O)c2cnc(Nc3ccc(N4CCN(C)CC4)cc3)nc2n1-c1cccc(C(C)(C)O)n1 [AZD1775] (first compound max 1 µM, partner max 1 µM)	-0.0441

Bliss excess measured on CC(=O)c1c(C)c2cnc(Nc3ccc(N4CCNCC4)cn3)nc2n(C2CCCC2)c1=O [Palbociclib] + CC1(C)CCC(CN2CCN(c3ccc(C(=O)NS(=O)(=O)c4ccc(NCC5CCOCC5)c([N+](=O)[O-])c4)c(Oc4cnc5[nH]ccc5c4)c3)CC2)=C(c2ccc(Cl)cc2)C1 [Venetoclax] (first compound max 10 µM, 7x7, partner max 1 µM) = -0.0311

The reported value for COc1cccc2c1C(=O)c1c(O)c3c(c(O)c1C2=O)C[C@@](O)(C(=O)CO)C[C@@H]3O[C@H]1C[C@H](N)[C@H](O)[C@H](C)O1 [Doxorubicin] + Cc1cc2ncnn2cc1Nc1ncc2c(n1)n(C1CCOCC1)c(=O)n2C [AZD7648] (first compound max 1 µM, 7x7, partner max 10 µM) in terms of Bliss excess is 0.0376

The recorded Bliss excess for entry COc1cccc(OCCCN)c1-c1cc(Nc2cnc(C#N)cn2)n[nH]1 [Prexasertib] + C[C@@H]1COCCN1C2=NC(=NC(=C2)C3(CC3)[S@](=N)(=O)C)C4=C5C=CNC5=NC=C4 [AZD6738] (first compound max 1 µM, 7x7, partner max 10 µM) equals 0.0572

* * *

test system: IMR-5 (Neuroblastoma); experiment: Bliss excess, mean over the matrix (fraction); higher = more synergy
Listed below: Bliss excess values for each entry.
Please give only the number in your answer, with no unit.

Compound	Test Target	Bliss excess
CC1(C)CCC(CN2CCN(c3ccc(C(=O)NS(=O)(=O)c4ccc(NCC5CCOCC5)c([N+](=O)[O-])c4)c(Oc4cnc5[nH]ccc5c4)c3)CC2)=C(c2ccc(Cl)cc2)C1 [Venetoclax] + C[C@@H]1COCCN1C2=NC(=NC(=C2)C3(CC3)[S@](=N)(=O)C)C4=C5C=CNC5=NC=C4 [AZD6738] (first compound max 1 µM, 7x7, partner max 10 µM)	IMR-5 (Neuroblastoma)	0.0104
CN(C)CCCOc1ccc(-c2ccc3ncc4c(c3c2)n(C2CCOCC2)c(=O)n4C)cn1 [AZD0156] + C=CCn1c(=O)c2cnc(Nc3ccc(N4CCN(C)CC4)cc3)nc2n1-c1cccc(C(C)(C)O)n1 [AZD1775] (first compound max 1 µM, partner max 1 µM)	IMR-5 (Neuroblastoma)	-0.0214
Cc1cc2ncnn2cc1Nc1ncc2c(n1)n(C1CCOCC1)c(=O)n2C [AZD7648] + O=C(c1cc(Cc2n[nH]c(=O)c3ccccc23)ccc1F)N1CCN(C(=O)C2CC2)CC1 [Olaparib] (first compound max 10 µM, 7x7, partner max 10 µM)	IMR-5 (Neuroblastoma)	0.0328

Looking up CC(=O)c1c(C)c2cnc(Nc3ccc(N4CCNCC4)cn3)nc2n(C2CCCC2)c1=O [Palbociclib] + CC1(C)CCC(CN2CCN(c3ccc(C(=O)NS(=O)(=O)c4ccc(NCC5CCOCC5)c([N+](=O)[O-])c4)c(Oc4cnc5[nH]ccc5c4)c3)CC2)=C(c2ccc(Cl)cc2)C1 [Venetoclax] (first compound max 10 µM, 7x7, partner max 1 µM) , I found its Bliss excess recorded as 0.0953

Record COc1cccc(OCCCN)c1-c1cc(Nc2cnc(C#N)cn2)n[nH]1 [Prexasertib] + CCc1c2c(nc3ccc(O)cc13)-c1cc3c(c(=O)n1C2)COC(=O)[C@]3(O)CC [SN-38] (first compound max 1 µM, 7x7, partner max 0.3 µM) . Reported Bliss excess: -0.011

Item: C=CCn1c(=O)c2cnc(Nc3ccc(N4CCN(C)CC4)cc3)nc2n1-c1cccc(C(C)(C)O)n1 [AZD1775] + C1CN(CCC1(C(=O)N[C@@H](CCO)C2=CC=C(C=C2)Cl)N)C3=NC=NC4=C3C=CN4 [Capivasertib] (first compound max 3 µM, partner max 3 µM) | Bliss excess: -0.0214

In plain terms, NC1(C(=O)N[C@@H](CCO)c2ccc(Cl)cc2)CCN(c2ncnc3[nH]ccc23)CC1 [Capivasertib] + CC(C)n1c(=O)n(C)c2cnc3cc(F)c(-c4ccc(OCCCN5CCCCC5)nc4)cc3c21 [AZD1390] (first compound max 10 µM, 7x7, partner max 0.3 µM) has a documented Bliss excess of -0.0487
